From: PubChem BioAssay (NCATS)

experiment: qHTS assay for small molecule antagonists of the retinoid-related orphan receptor gamma (ROR-gamma) signaling pathway - cell viability counter screen (AID 720652); details: RORgamma reporter cell line viability counter screen; series mostly up to 92.2 µM;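 further: compound exposure lasted 16 hr before ATP read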; further: potency means the concentration at half of the fitted maximal effect
Records with an inconclusive call do not appear. The source made the active and inactive calls. The call rests on the fitted dose curve; in most records, active means well fitted cell-killing curve with a large enough effect in the repeat runs; inconclusive means weak or mixed curves, or effect the other way; inactive means flat fitted curve, though single readings scatter.
Value type: Potency

Here's what some known entries look like.
CC(=O)O[C@]1(C(C)=O)CC[C@H]2[C@@H]3C=C(Cl)C4=CC(=O)[C@@H]5C[C@@H]5[C@]4(C)[C@H]3CC[C@@]21C; inactive
O=C(O)Cc1cccc2ccccc12; inactive
O=c1cc(-c2ccc(O)cc2)oc2cc(O)cc(O)c12; inactive
CC1=C(/C=C/C(C)=C/C=C/C(C)=C/C(=O)Nc2ccc(O)cc2)C(C)(C)CCC1; 26.6 µM (active)
CCn1cc(C(=O)O)c(=O)c2ccc(C)nc21; inactive
CC/C(=C(\c1ccccc1)c1ccc(OCCN(C)C)cc1)c1ccccc1; 66.8 µM (active)

From here, focus on the item given below.
Query "O=C1NC(=O)C(c2ccccc2)(c2ccccc2)N1" yields Potency of inactive
